Quick record: pIC50, Histone-lysine N-methyltransferase EZH2 (Homo sapiens, UniProt Q15910, Y641N).
pIC50: −log10 of the molar value.
Assay Endpoint: pIC50

> print(dat)
                                   molecule  assay.endpoint  test.result
1  C=CCC1(S(=O)(=O)N2CCc3c(C(=O)NCc4c(C)cc(C)[nH]c4=O)cc(-c4ccc(N5CCN(C)CC5)nc4)cc32)CC1           pIC50         5.59
2  C=CCC1(S(=O)(=O)N2CC(C)c3c(C(=O)NCc4c(C)cc(C)[nH]c4=O)cc(-c4ccc(N5CCN(C)CC5)nc4)cc32)CC1 (centres undefined)           pIC50         5.82
3  C=CCC1(S(=O)(=O)n2nc(C)c3c(C(=O)NCc4c(C)cc(C)[nH]c4=O)cc(-c4ccc(N5CCN(C)CC5)nc4)cc32)CC1           pIC50         5.55
4  C=CCC1(S(=O)(=O)n2cc(C)c3c(C(=O)NCc4c(OC)cc(C)[nH]c4=O)cc(-c4ccc(N5CCN(C)CC5)nc4)cc32)CC1           pIC50         4.57
